molecular target: T1, purified, recombinant parvovirus B19 capsid proteins VP1 and VP2 (VP1-VP2) (human parvovirus B19, UniProt P07299 1-781; P07299 1-554); test: phage ELISA; VP1-VP2 coated on dextrin plates, HRP anti-M13 detection
T1 construct: Surrogate target: partially purified/purified recombinant VP1 + VP2 preparation; Made by methods of US 5,498,413 or WO 91/12269
Positions of bridges follow the written chain, without caps; N, C: chain ends. No end group written: not given here.
readout-name: ELISA signal
A bare number is all that is needed in reply.

binder	ELISA signal
FCHLWWPFQCA (peptide, not shown: large carriers, disulfide 2-10 (inferred); also: displayed on M13 phage, coat protein fusion and flanking residues not given here, Tested as phage isolate displaying the peptide (TN9 library)) [TN9 isolate E03]	0.8

query: // ELISA signal lookup, key: LFCSFWYNCDA (peptide, not shown: large carriers, disulfide 3-9 (inferred); also: displayed on M13 phage, coat protein fusion and flanking residues not given here, Tested as phage isolate displaying the peptide (TN7 library)) [TN7 isolate D11]
result: 0.9

query: ELISA signal lookup needed for FFCGFWHDCHP (peptide, not shown: large carriers, disulfide 3-9 (inferred); also: displayed on M13 phage, coat protein fusion and flanking residues not given here, Tested as phage isolate displaying the peptide (TN7 library)) [TN7 isolate A07] , thanks.
result: 0.7

query: Recorded ELISA signal of HFCHFWFGGCPH (peptide, not shown: large carriers, disulfide 3-10 (inferred); also: displayed on M13 phage, coat protein fusion and flanking residues not given here, Tested as phage isolate displaying the peptide (TN8 library)) [TN8 isolate D06] , please.
result: 1.3
